Assignment: determine reported inhibition for the given compounds.
- assay.target: Bifunctional protein GlmU (Mycobacterium tuberculosis (strain ATCC 25618 / H37Rv)) (UniProt P9WMN3)
- Sequence (P9WMN3 whole entry, looked up): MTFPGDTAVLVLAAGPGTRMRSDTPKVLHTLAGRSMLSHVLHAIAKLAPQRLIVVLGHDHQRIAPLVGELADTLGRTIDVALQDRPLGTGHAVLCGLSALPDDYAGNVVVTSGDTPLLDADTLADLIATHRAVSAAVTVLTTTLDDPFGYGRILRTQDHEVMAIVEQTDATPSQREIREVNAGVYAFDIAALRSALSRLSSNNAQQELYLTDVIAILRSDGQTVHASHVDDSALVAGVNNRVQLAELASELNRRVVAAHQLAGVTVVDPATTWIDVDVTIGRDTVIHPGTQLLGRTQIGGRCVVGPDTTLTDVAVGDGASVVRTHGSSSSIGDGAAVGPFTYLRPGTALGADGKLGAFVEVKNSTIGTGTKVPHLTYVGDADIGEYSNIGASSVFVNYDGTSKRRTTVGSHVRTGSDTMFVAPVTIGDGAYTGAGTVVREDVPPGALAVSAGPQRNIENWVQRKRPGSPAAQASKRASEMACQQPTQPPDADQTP
- protocol.description: inhibition of mycobacterial GlmU enzyme – biochemical, glucosamine-1-phosphate acetyltransferase (AID 1376);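 note: 0% = complete reaction with vehicle and 100% = reaction without substrate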
- experimental.setup: M. tuberculosis GlmU acetyltransferase enzyme assay; hits give high values;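 tested at 30 µM in the primary screen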
Hit rate of the full screen: of about 220,000 compounds, about 530 (0.24%) were called active. This excerpt belongs to a sample that is enriched for actives. Measured potencies and affinities stand elsewhere.
Answers are plain numbers, in %.

Cc1cc(C(=O)CS(=O)(=O)c2ccccc2)cc(C)c1OC(=O)N(C)C; 0.59
S=c1[nH]nc(COc2cccc(Cl)c2)n1Cc1ccccc1; 2.34
N#C/C(=C/c1ccc(-c2ccc(S(N)(=O)=O)cc2)o1)c1nc2ccccc2s1; 6.34

For each of the compounds below, note its inhibition.
1. CC1CC(C)(C)NC(=S)N1CCCC(=O)Nc1ccc2c(c1)OCCO2 (configuration not stated)
2. N#C/C(=C\c1ccc(Sc2ccccc2)o1)c1nc2ccccc2[nH]1
3. Cc1ccc(NC(=O)Cn2nnc3ccccc32)cc1

1. -3.18
2. -4.05
3. -1.28

For each of the compounds below, note its inhibition.
1. CC1CCN(CCc2nc3cc(NC(=O)Nc4ccccc4)ccc3n2C)CC1
2. N#Cc1ccccc1NC1=CC(=O)CCC1
3. O=C(NNC(=S)NC(=O)c1cccnc1)c1ccc(Cl)cc1
4. N#C/C(=C/c1ccncc1)c1nc2ccccc2s1
5. COc1cc(/C=C(\C#N)c2nc3ccccc3s2)cc([N+](=O)[O-])c1O
6. Cc1c(N=C2C=C(Br)C(=O)C(Br)=C2)c(=O)n(-c2ccccc2)n1C
7. CC1=CC(=Nc2c(C)n(C)n(-c3ccccc3)c2=O)C=C(C)C1=O
8. O=C(O)CCCCCCCC(=O)O

[-2.61, -6.37, -3.46, -6.23, 6.33, 14.5, -6.33, -3.59]

For each of the compounds below, note its inhibition.
1. O=C(O)CCCCC1SCC2NC(=O)NC21 (configuration not stated)
2. O=C(NCCCn1ccnc1)C1CC(c2ccccc2Cl)=NO1 (configuration not stated)
3. O=C(Nc1ccon1)c1ccccc1F

[-2, -2.77, -0.14]
